Target: ENPP-1 ECD (Homo sapiens (Human), UniProt P22413)
Sequence (P22413 98-925): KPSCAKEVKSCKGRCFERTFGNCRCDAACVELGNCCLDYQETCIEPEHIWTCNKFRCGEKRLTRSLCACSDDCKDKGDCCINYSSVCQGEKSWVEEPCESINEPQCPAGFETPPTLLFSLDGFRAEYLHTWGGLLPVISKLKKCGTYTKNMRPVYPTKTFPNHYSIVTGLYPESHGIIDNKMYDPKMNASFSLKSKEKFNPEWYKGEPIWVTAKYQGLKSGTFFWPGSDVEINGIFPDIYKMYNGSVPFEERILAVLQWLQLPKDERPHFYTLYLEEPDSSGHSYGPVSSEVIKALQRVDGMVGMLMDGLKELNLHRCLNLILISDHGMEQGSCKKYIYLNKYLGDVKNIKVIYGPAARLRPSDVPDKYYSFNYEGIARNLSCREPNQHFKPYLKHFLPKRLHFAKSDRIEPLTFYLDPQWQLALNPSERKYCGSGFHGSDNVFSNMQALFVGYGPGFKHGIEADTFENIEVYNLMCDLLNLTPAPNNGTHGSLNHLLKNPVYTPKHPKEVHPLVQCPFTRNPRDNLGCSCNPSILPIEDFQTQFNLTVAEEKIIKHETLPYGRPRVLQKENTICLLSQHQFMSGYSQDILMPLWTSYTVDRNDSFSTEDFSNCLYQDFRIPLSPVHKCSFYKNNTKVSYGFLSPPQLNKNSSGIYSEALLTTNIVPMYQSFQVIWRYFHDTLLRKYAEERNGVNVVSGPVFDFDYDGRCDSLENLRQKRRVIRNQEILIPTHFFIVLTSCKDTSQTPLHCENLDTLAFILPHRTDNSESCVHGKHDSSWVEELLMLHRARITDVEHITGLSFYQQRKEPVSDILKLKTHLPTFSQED
Test: Assay 2: inhibition of ENPP1 hydrolysis of 2′,3′-cGAMP (AMP-Glo, […] enzyme)
Conditions: read-out: Assay 2 (KI); ENPP1 hydrolysis of 2′,3′-cGAMP, AMP-Glo, […] ENPP-1, 24 μM cGAMP

compound	Ki
COc1ccc2c(N3CCC4(CC3)CCN([S@](C)(=N)=O)C4)ccnc2c1 [Compound 55a]	< 3 nM
COc1cc2nccc(Oc3ccc([S@@](C)(=N)=O)cc3)c2cc1F [Compound 114b]	3 to 300 nM
CC[S@@](=N)(=O)c1ccc(Oc2ccnc3cc(OC)ccc23)cc1 [Compound 103a]	> 300 nM
COc1ccc2c(N3CCC4(CC3)CCN([S@@](C)(=N)=O)C4)ccnc2c1 [Compound 55b]	3 to 300 nM
COc1cc2nccc(N3CCC(CC[S@](C)(=N)=O)CC3)c2cc1Cl [Compound 141b]	3 to 300 nM
COc1ccc2c(OCc3ccc([S@](C)(=N)=O)cc3)ccnc2c1 [Compound 75b]	3 to 300 nM
COc1cc2nccc(N3CCC4(CC3)CCN([S@@](C)(=N)=O)C4)c2cc1Cl [Compound 156a]	< 3 nM
COc1cc2ncnc(N3CCC(CN[S@@](C)(=N)=O)CC3)c2cc1OC [Compound 94a]	< 3 nM
COc1ccc2c(OCc3cccc([S@](C)(=N)=O)c3)ccnc2c1 [Compound 133b]	3 to 300 nM

###

# IC50 listing for each entry below
Molecular target: UniProt P22413
Experiment: Assay 1: inhibition of ENPP1 hydrolysis of 2′,3′-cGAMP (AMP-Glo, […] enzyme)
Settings: IC50 in Assay 1, […] ENPP-1 ECD, 24 μM 2,3-cGAMP, pH 8.0

compound	tested-system	IC50 [nM]
COc1cc2nccc(Oc3ccc(S(C)(=N)=O)cc3)c2cc1OC (stereo not shown)	UniProt P22413	17
COc1cc2ncnc(N3CCC(CCS(C)(=N)=O)CC3)c2cc1OC (stereo not shown)	UniProt P22413	6.9
COc1cc2nccc(Oc3ccc(S(N)(=O)=O)cc3)c2cc1OC [reference compound]	UniProt P22413	190
COc1cc2nccc(-c3ccc4c(c3)CN(S(C)(=N)=O)CC4)c2cc1OC (stereo not shown)	UniProt P22413	1.3
COc1cc2ncnc(-c3ccc4c(c3)CN(S(N)(=O)=O)CC4)c2cc1OC [reference compound]	UniProt P22413	11
COc1cc2ncc(C#N)c(N3CCC4(CC3)CCN(S(N)(=O)=O)C4)c2cc1F [reference compound]	UniProt P22413	2.9
COc1ccc2c(Oc3ccc(S(C)(=N)=O)cc3)ccnc2c1 (stereo not shown)	UniProt P22413	1.4

###

Target: ENPP-1 ECD (Homo sapiens (Human))
Assay: Assay 2: inhibition of ENPP1 hydrolysis of 2′,3′-cGAMP (AMP-Glo, […] enzyme)
Conditions: Assay 2 (KI), inhibition of ENPP1 hydrolysis of 2′,3′-cGAMP; no unit in Table 18 (Table 17 legend for this assay uses nM)

compound	Ki
COc1ccc2c(Oc3ccc(S(C)(=N)=O)nc3)ccnc2c1 (stereo not drawn) [Compound 101]	5.4 nM
COc1cc2nccc(Oc3ccc(S(C)(=N)=O)c(F)c3)c2cc1OC (stereo not drawn) [Compound 115]	13 nM
COc1cc2ncnc(N3CCC(CCCS(C)(=N)=O)CC3)c2cc1OC (stereo not drawn) [Compound 145]	8.7 nM
COc1cc2ncnc(-c3ccc4c(c3)CN(S(C)(=N)=O)CC4)c2cc1OC (stereo not drawn) [Compound 37]	0.41 nM
COc1cccc2c(N3CC4(CCN(S(C)(=N)=O)C4)C3)c(C#N)cnc12 (stereo not drawn) [Compound 222]	0.07 nM
COc1cc2nccc(Oc3ccc([S@](C)(=N)=O)cc3)c2cc1OC [Compound 1R]	330 nM
COc1ccc2c(Oc3ccc(S(C)(=N)=O)cc3)c(C)cnc2c1 (stereo not drawn) [Compound 168]	0.84 nM
COc1cc2ncnc(N3CCC4(CCN(S(C)(=N)=O)C4)C3)c2cc1OC (stereo not drawn) [Compound 216]	5.5 nM
COc1cc2ncc(C#N)c(N3CCC4(CC3)CCN(S(C)(=N)=O)C4)c2cc1F (stereo not drawn) [Compound 210]	0.024 nM
